Target: CDK7/cyclin H (Homo sapiens)
Sequence (P50613 whole entry, species assumed): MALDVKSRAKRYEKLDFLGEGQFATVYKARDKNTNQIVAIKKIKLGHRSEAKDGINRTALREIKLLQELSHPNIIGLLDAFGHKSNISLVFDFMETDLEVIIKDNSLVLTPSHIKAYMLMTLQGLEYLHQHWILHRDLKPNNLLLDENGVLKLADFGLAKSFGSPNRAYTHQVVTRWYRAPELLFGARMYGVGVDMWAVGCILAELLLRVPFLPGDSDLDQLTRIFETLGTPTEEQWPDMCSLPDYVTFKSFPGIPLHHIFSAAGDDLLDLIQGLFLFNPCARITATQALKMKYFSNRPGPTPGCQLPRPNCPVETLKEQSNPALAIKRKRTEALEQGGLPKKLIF
Sequence (P51946 whole entry partner, species assumed): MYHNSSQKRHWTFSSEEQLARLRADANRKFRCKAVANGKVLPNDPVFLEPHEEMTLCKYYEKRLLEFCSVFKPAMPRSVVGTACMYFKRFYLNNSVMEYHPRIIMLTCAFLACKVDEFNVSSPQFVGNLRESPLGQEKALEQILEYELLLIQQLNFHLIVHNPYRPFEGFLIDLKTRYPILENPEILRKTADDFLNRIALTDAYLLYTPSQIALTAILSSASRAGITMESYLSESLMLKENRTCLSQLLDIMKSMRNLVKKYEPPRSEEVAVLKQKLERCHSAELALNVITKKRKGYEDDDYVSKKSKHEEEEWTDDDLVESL
Assay: CDK7/cyclin H kinase assay
Conditions: Table 4
Test readout: IC50 (nM)
Report only the number, with the unit nM understood.

In: Look up and state reported IC50 for CC[C@H](CO)Nc1cc(NCc2ccccc2)c2ncn(C(C)C)c2n1 [(R)-perharidine A]
Out: 900

* * *

Reported pIC50 values for a set of compounds
Biological target: CK1δ/ε
Test: CK1 kinase assay
Assay type: biochemical, porcine
Settings: read-out: Inhibition of CK1, IC50
As a rule, pIC50 stands for the negative log10 of the concentration, concentration in M.

Some compounds with recorded pIC50:
| Smiles | pIC50 |
| --- | --- |
| CC[C@H](CO)Nc1cc(NCc2ccc(-c3ccccc3)cc2)c2ncn(C(C)C)c2n1 | 5.92 |
| CC(C)n1cnc2c(NCc3ccc(-c4ccccn4)cc3)cc(NC[C@H](O)CO)nc21 | 6.42 |
| CC(C)n1cnc2c(NCc3ccc(-c4ccccn4)cc3)cc(NC(CO)CO)nc21 | 6.55 |

Here is the next item to consider.
In: Determine its reported pIC50: CC[C@H](N)COc1cc(NCc2ccc(-c3ccccc3)cc2)c2ncn(C(C)C)c2n1
Out: 6.66

* * *

Molecular target: DYRK1A (Homo sapiens, UniProt Q13627)
Experiment: DYRK1A kinase assay
Format: biochemical
Settings: read-out: Inhibition of DYRK1A, IC50
Test readout: pIC50
Units for pIC50: none; it is -log10 of a concentration expressed in mol/L.

Below, each entry is followed by its recorded pIC50 result.
| Smiles | Test readout | Numeric result |
| --- | --- | --- |
| CC[C@H](N)COc1cc(NCc2ccc(-c3ccccc3)cc2)c2ncn(C(C)C)c2n1 | pIC50 | 5.48 |
| CC[C@@H](CO)Nc1cc(NCc2ccc(-c3ccccc3)cc2)c2ncn(C(C)C)c2n1 | pIC50 | 5.35 |

Next molecule, pIC50 to be filled in.
In: Give pIC50 for CC[C@@H](N)COc1cc(NCc2ccc(-c3ccccc3)cc2)c2ncn(C(C)C)c2n1
Out: 5.40

* * *

Recorded IC50 by entry
Target: CK1δ/ε
Experiment: CK1 kinase assay
Assay type: biochemical, porcine
Conditions: read-out: Inhibition of CK1, IC50
Reply with a number, then the unit it belongs to.

Check out these entries, answers already filled in.
| Compound | Test readout | Result |
| --- | --- | --- |
| CC[C@@H](CO)Nc1cc(NCc2ccc(-c3ccccc3)cc2)c2ncn(C(C)C)c2n1 | IC50 | 2000 nM |
| CC[C@@H](N)COc1cc(NCc2ccc(-c3ccccc3)cc2)c2ncn(C(C)C)c2n1 | IC50 | 120 nM |

// switching to the query compound
In: Give recorded IC50. CC(C)n1cnc2c(NCc3ccc(-c4ccccn4)cc3)cc(NC(CO)[C@@H](C)O)nc21 (stereo in doubt)
Out: 530 nM

* * *

Target: CDK2/cyclin A (Homo sapiens)
Construct: made in house; host or cells: insect cells
Assay: CDK2/cyclin A kinase assay
Type: biochemical
Conditions: Table 5; read-out: CDK2/cyclin A
Test readout: pIC50
Worth noting: pIC50 values are minus log10 of concentrations stated in mol/L.

Answered cases to consult:
| Compound | pIC50 |
| --- | --- |
| CC[C@@H](CO)Nc1cc(NCc2ccc(-c3ccccn3)cc2)c2ncn(C(C)C)c2n1 [(S)-perharidine D] | 6.82 |
| CC[C@H](CO)Nc1cc(NCc2ccccc2)c2ncn(C(C)C)c2n1 [(R)-perharidine A] | 6.52 |
| CC[C@@H](CO)Nc1cc(NCc2ccccc2)c2ncn(C(C)C)c2n1 [(S)-perharidine B] | 6.38 |

In: Give a short answer stating reported pIC50 for CC[C@H](CO)Nc1cc(NCc2ccc(-c3ccccn3)cc2)c2ncn(C(C)C)c2n1 [(R)-perharidine C] .
Out: 6.44

* * *

Catalogue of pIC50 readings, one per entry.
Molecular target: CDK1/cyclin B
Test: CDK1/cyclin B kinase assay
Format: biochemical, starfish
Settings: read-out: Inhibition of CDK1/cyclin B, IC50
pIC50 here: minus log base 10 of the concentration, concentration in moles per litre.

| Compound | Assay target | pIC50 |
| --- | --- | --- |
| CC(C)n1cnc2c(NCc3ccc(-c4ccccn4)cc3)cc(NC(CO)[C@@H](C)O)nc21 (stereo in doubt) | CDK1/cyclin B | 6.82 |

// moving on: another record for pIC50
In: Using known records, supply pIC50 for CC(C)n1cnc2c(NCc3ccc(-c4ccccn4)cc3)cc(NC[C@H](O)CO)nc21
Out: 6.70

* * *

Target: CDK1/cyclin B
Experiment: CDK1/cyclin B kinase assay
Assay type: biochemical, starfish
Conditions: Table 5; read-out: CDK1/cyclin B
Test readout: pIC50
Scale note: pIC50 = -log10(concentration in M).

| Molecule | pIC50 |
| --- | --- |
| CC[C@H](CO)Nc1cc(NCc2ccc(-c3ccccn3)cc2)c2ncn(C(C)C)c2n1 [(R)-perharidine C] | 6.34 |
| CC[C@@H](CO)Nc1cc(NCc2ccccc2)c2ncn(C(C)C)c2n1 [(S)-perharidine B] | 6.14 |
| CC[C@H](CO)Nc1cc(NCc2ccccc2)c2ncn(C(C)C)c2n1 [(R)-perharidine A] | 6.37 |

Please look at the following molecule next.
In: Param request: pIC50 | system CDK1/cyclin B | item CC[C@@H](CO)Nc1cc(NCc2ccc(-c3ccccn3)cc2)c2ncn(C(C)C)c2n1 [(S)-perharidine D]
Out: 6.57

* * *

Biological target: CDK5/p25 (Homo sapiens)
Construct: made in house
Sequence (Q00535 whole entry): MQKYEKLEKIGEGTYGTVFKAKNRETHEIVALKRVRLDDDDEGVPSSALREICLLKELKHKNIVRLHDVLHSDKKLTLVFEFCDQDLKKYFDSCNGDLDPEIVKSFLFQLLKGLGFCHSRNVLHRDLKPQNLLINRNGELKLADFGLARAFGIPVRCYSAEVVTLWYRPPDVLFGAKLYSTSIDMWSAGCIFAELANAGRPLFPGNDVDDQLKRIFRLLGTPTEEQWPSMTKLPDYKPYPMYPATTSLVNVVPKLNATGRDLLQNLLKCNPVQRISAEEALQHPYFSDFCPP
Sequence (Q15078 99-307 partner limits assumed): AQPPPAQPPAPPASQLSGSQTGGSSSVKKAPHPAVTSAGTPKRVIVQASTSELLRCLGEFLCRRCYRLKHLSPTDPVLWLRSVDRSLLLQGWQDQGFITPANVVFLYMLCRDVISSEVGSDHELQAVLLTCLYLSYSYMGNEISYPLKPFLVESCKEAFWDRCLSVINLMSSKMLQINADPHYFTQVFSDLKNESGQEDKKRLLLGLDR
Assay: CDK5/p25 kinase assay
Type: biochemical
Settings: Table 5; read-out: CDK5/p25
Test readout: IC50 (nM)
Quick note: give the figure in nM, leave out the unit.

In: Output measured IC50 for this item: CC[C@H](CO)Nc1cc(NCc2ccccc2)c2ncn(C(C)C)c2n1 [(R)-perharidine A]
Out: 400

In: Tell me measured IC50 for CC[C@@H](CO)Nc1cc(NCc2ccccc2)c2ncn(C(C)C)c2n1 [(S)-perharidine B] please.
Out: 500

In: For CC[C@@H](CO)Nc1cc(NCc2ccc(-c3ccccn3)cc2)c2ncn(C(C)C)c2n1 [(S)-perharidine D] , write its IC50.
Out: 200

In: Quick one: give measured IC50 for CC[C@H](CO)Nc1cc(NCc2ccc(-c3ccccn3)cc2)c2ncn(C(C)C)c2n1 [(R)-perharidine C]
Out: 600

* * *

Biological target: CDK1/cyclin B
Test: CDK1/cyclin B kinase assay
Assay type: biochemical, starfish
Details: Table 4; read-out: CDK1
Test readout: IC50 (µM)
Kindly answer with a numeric value in µM, unit omitted.

| Compound | Unit string | IC50 |
| --- | --- | --- |
| CC(C)n1cnc2c(NCc3ccccc3)cc([N+](=O)[O-])nc21 [Formula Ie] | µM | 1 |
| CC(C)n1cnc2c(NCc3ccccc3)cc(N)nc21 [Formula If] | µM | 4 |
| CC[C@H](CO)Nc1cc(NCc2ccccc2)c2ncn(C(C)C)c2n1 [(R)-perharidine A] | µM | 0.35 |

Shift focus to the following entry.
In: Return value of IC50 for input CC(C)n1cnc2c(NCc3ccccc3)cc(NC(=O)C(F)(F)F)nc21 [Formula Ig] , no commentary.
Out: 0.53

* * *

Biological target: CK1δ/ε
Assay: CK1 kinase assay
Assay type: biochemical, porcine
Conditions: Table 4; read-out: CK1
We begin with a simple list: items and their reported pIC50.
Expect pIC50 as a plain number equal to -log10 of the molar concentration.

| Molecule | Assay target | Test readout | Numeric result |
| --- | --- | --- | --- |
| CC(C)n1cnc2c(NCc3ccccc3)cc(NC(=O)C(F)(F)F)nc21 [Formula Ig] | CK1δ/ε | pIC50 | 5.52 |
| CC(C)n1cnc2c(NCc3ccccc3)cc(N)nc21 [Formula If] | CK1δ/ε | pIC50 | 5.10 |
| CC[C@H](CO)Nc1cc(NCc2ccccc2)c2ncn(C(C)C)c2n1 [(R)-perharidine A] | CK1δ/ε | pIC50 | 5.40 |

Okay, now this molecule:
In: For the molecule CC(C)n1cnc2c(NCc3ccccc3)cc([N+](=O)[O-])nc21 [Formula Ie] , report pIC50.
Out: 6.00

* * *

Molecular target: GSK-3α/β
Test: GSK-3α/β kinase assay
Type: biochemical, porcine
Settings: Table 5; read-out: GSK-3α/β
# pIC50 listing for each entry below
# pIC50: negative log10 of molar concentration; output just the value

| Compound | Numeric result |
| --- | --- |
| CC[C@@H](CO)Nc1cc(NCc2ccc(-c3ccccn3)cc2)c2ncn(C(C)C)c2n1 [(S)-perharidine D] | 4.61 |

In: Return reported pIC50 for target or system GSK-3α/β, item CC[C@H](CO)Nc1cc(NCc2ccc(-c3ccccn3)cc2)c2ncn(C(C)C)c2n1 [(R)-perharidine C] .
Out: 4.96
